experiment: ATG_DR4_LXR_CIS: Attagene CIS-FACTORIAL HepG2 Assay for human Liver X Receptor (LXR), DR4 submotif (AID 2282929); settings: HepG2 Attagene DR4 cis-reporter, mRNA transcription; actives raise or lower the signal
Calls of active or inactive are those of the source. The calls were made as follows: active = hit-call score of the fitted dose curve at least 0.9, where 1 is the maximum; inactive = score below 0.9.
Valid outcomes are listed here; reply with one: true (1) = active, false (0) = inactive

Example cases with answers are listed next.
CCC[N+](CCC)(CCC)CCC; false (0)
O=[N+]([O-])c1cc([As](=O)(O)O)ccc1O; false (0)
O=C(CCl)Nc1ccccc1; true (1)
OC(Cc1ccccc1Cl)(Cn1[nH]cnc1=S)C1(Cl)CC1 (configuration not stated); false (0)

Request: Please indicate how the test categorized O=C1C[C@@H]2OCC=C3CN4CC[C@]56c7ccccc7N1[C@H]5[C@H]2[C@H]3C[C@H]46 .
Response: false (0)

Request: Please indicate how the test categorized CN(C)[C@@H]1C(=O)C(C(N)=O)=C(O)[C@@]2(O)C(=O)C3=C(O)c4c(O)ccc(Cl)c4[C@@](C)(O)[C@H]3C[C@@H]12 .
Response: false (0)

Request: Please indicate how the test categorized N#CS .
Response: false (0)

Data credit: PubChem BioAssay (EPA / NIEHS)
